Experiment: Plasma levels of J147 after oral administration in Basis suspension
Assay type: in vivo, Adult Wister Rats
Details: Wistar, rat, plasma, po, 20 mg/kg, oral 20 mg/kg in Basis suspension; 0.5 h; mean of rats; read-out: Plasma Conc. Mean
property_label: concentration at 0.5 h
Answer with the value and then the unit.

// concentration at 0.5 h lookup, key: COc1cccc(/C=N/N(C(=O)C(F)(F)F)c2ccc(C)cc2C)c1 3.94 ng/mL

----------
Assay: Brain levels of J147 after oral administration in Basis suspension
Assay type: in vivo, Adult Wister Rats
Conditions: Wistar, rat, brain, po, 20 mg/kg, oral 20 mg/kg in Basis suspension, PO_B satellite; 1 h; mean of Group 1 and 2; read-out: Brain Actual Conc. Mean
property_label: concentration at 1 h
I'd appreciate it if you included the unit after the number.

Using the record for COc1cccc(/C=N/N(C(=O)C(F)(F)F)c2ccc(C)cc2C)c1 [J147] , report its concentration at 1 h. 23.7 ng/g

----------
Test: Pharmacokinetic plasma parameters of J147, oral and intravascular administration
Type: in vivo, Adult Wister Rats
Conditions: Wistar, rat, plasma, po, 20 mg/kg, PO_B (oral, Basis); Mean; read-out: Cmax
property_label: Cmax (ng/mL)
# value in ng/mL; strip the unit string

Requested read-out: Cmax. Entry: COc1cccc(/C=N/N(C(=O)C(F)(F)F)c2ccc(C)cc2C)c1 47.4

----------
Experiment: Pharmacokinetic plasma parameters of J147, oral and intravascular administration
Assay type: in vivo, Adult Wister Rats
Conditions: Wistar, rat, plasma, iv, 5 mg/kg, IV 5 mg/kg; Mean of 4 animals; read-out: MRT
property_label: MRT

Returns the measured MRT for the input compound. Input: COc1cccc(/C=N/N(C(=O)C(F)(F)F)c2ccc(C)cc2C)c1 41.7 min

----------
Assay: Pharmacokinetic plasma parameters of J147, oral and intravascular administration
Format: in vivo, Adult Wister Rats
Settings: Wistar, rat, plasma, po, 20 mg/kg, PO_B (oral, Basis); Mean
property_label: AUC(0-inf)

Look at this compound and give its reported AUC(0-inf). COc1cccc(/C=N/N(C(=O)C(F)(F)F)c2ccc(C)cc2C)c1 [J147] 0.0769 µg·h/mL

----------
Assay: Brain levels of J147 after oral administration in Basis suspension
Format: in vivo, Adult Wister Rats
Settings: Wistar, rat, brain homogenate, po, 20 mg/kg, oral 20 mg/kg in Basis suspension, PO_B satellite; 1 h; brain homogenate 1:3; Group 1, Group 2; LLOQ 2 ng/g; read-out: Brain Detected Conc.
property_label: concentration at 1 h (ng/mL)
Report the value in ng/mL with no unit label.

Please give the measured concentration at 1 h for this molecule: COc1cccc(/C=N/N(C(=O)C(F)(F)F)c2ccc(C)cc2C)c1 [J147] 7.01

----------
Test: Pharmacokinetic plasma parameters of J147, oral and intravascular administration
Format: in vivo, Adult Wister Rats
Conditions: Wistar, rat, plasma, iv, 5 mg/kg, IV 5 mg/kg, 1 mg/mL in DMSO/PEG 200/Saline 5/70/25; individual animals (1148, 1154, 1156, 1158)
Description: Plasma samples obtained during surgery in J147-treated rats and 3 control rats were measured for circulating levels of J147. Results of pharmacokinetic measures of both plasma and brain levels of J147 in rats following oral administration of J147 in basis suspension at 20 mg/kg and also following intravascular administration at 5 mg/kg are shown in Table 2A-C below. […]
property_label: half-life (h)
Report the value in h with no unit label.

half-life lookup needed for COc1cccc(/C=N/N(C(=O)C(F)(F)F)c2ccc(C)cc2C)c1 , thanks. 1.06

----------
Experiment: Pharmacokinetic plasma parameters of J147, oral and intravascular administration
Type: in vivo, Adult Wister Rats
Details: Wistar, rat, plasma, po, 20 mg/kg, PO_A 20 mg/kg, 7 mg/mL in Basis; Mean; read-out: tmax
property_label: Tmax
Just so you know, I need the unit written after the number.

Find the recorded Tmax belonging to COc1cccc(/C=N/N(C(=O)C(F)(F)F)c2ccc(C)cc2C)c1 and report it. 52.8 min
